Tested on: UACC-62 melanoma
Experiment: NCI tumour cell line growth inhibition, 48 h; in the data active means GI50 below about 0.43 µM; inactive means the rest
Classes to choose from: active, inactive

Past entries and their recorded results:
Entry Cc1cccc(Oc2ccc(Nc3ncnc4ccc(NC(=O)CN5CCN(C)CC5)cc34)cc2Cl)c1 : call = ?
inactive

Entry O=C(Nc1nc(-c2ccc(Cl)cc2)cs1)c1ccc(O)c(O)c1 : call = ?
inactive

Entry CCCCCCCCO/N=C\c1c2c(O)c3c(O)c(C)c4c(c3c1O)C(=O)C(C)(O/C=C\C(OC)C(C)C(OC(C)=O)C(C)C(O)C(C)C(O)C(C)/C=C\C=C(\C)C(=O)N2)O4 (configuration not stated) : call = ?
inactive

Entry COc1cc2c3c(n(CCCn4ccnc4)c(=O)c2cc1OC)-c1ccccc1C3=O : call = ?
active

Entry COc1cc(-c2ccc(-[n+]3nc(-c4ccc([N+](=O)[O-])cc4)nn3-c3ccc([N+](=O)[O-])cc3)c(OC)c2)ccc1-[n+]1nc(-c2ccc([N+](=O)[O-])cc2)nn1-c1ccc([N+](=O)[O-])cc1 : call = ?
inactive

Entry COc1cc(/C=C/C(=O)CC(=O)/C=C/c2ccc(OC(=O)CCNC34CC5CC(CC(C5)C3)C4)c(OC)c2)ccc1OC(=O)CCNC12CC3CC(CC(C3)C1)C2 : call = ?
inactive

Okay, next one:
Entry CC1(C)OC(=O)C=C(O)O1.CC1(C)OC(=O)C=C(O)O1.CCO.Oc1ccc2c(c1)CCC2.[Ti] : call = ?
inactive

---

Test system: UACC-62 melanoma
Test: NCI tumour cell line growth inhibition, 48 h
property.measured: TGI (µM)
Hi! Could you send only the number? It should be in µM, unit omitted.

So for CO[C@H]1C[C@@H]2CC[C@@H](C)[C@@](O)(O2)C(=O)C(=O)N2CCCC[C@H]2C(=O)O[C@H]([C@H](C)C[C@@H]2CC[C@@H](OC(=O)C(C)(CO)CO)[C@H](OC)C2)CC(=O)[C@H](C)/C=C(\C)[C@@H](O)[C@@H](OC)C(=O)[C@H](C)C[C@H](C)/C=C/C=C/C=C/1C , the logged TGI turned out to be 29.7

Next molecule, TGI to be filled in.
So for C=C1C(=O)O[C@H]2[C@H]1CC/C(COC(=O)N[C@@H](Cc1c[nH]c3ccccc13)C(=O)OC)=C\CC[C@@]1(C)O[C@@H]21 , the logged TGI turned out to be 2.84

---

Tested on: DU-145 prostate
Assay: NCI tumour cell line growth inhibition, 48 h
property.measured: TGI

So for CCC[CH2][Sn]([CH2]CCC)([O]C(=O)c1cccc(F)c1F)[O][Sn]([CH2]CCC)([CH2]CCC)[O]C(=O)c1cccc(F)c1F , the logged TGI turned out to be 1.63 µM

So for CCCCC1Cc2cc(OC)ccc2-c2nc3cc(OC)ccc3n21 (stereo unspecified) (tested in a mixture with another compound) , the logged TGI turned out to be 30 µM

So for COc1cc(/C=C2\C[C@H]3[C@@H]4CC=C5C[C@@H](OC(C)=O)CC[C@]5(C)[C@H]4CC[C@]3(C)[C@H]2OC(C)=O)ccc1OCCCn1ccnc1 , the logged TGI turned out to be 18.7 µM

So for O=[N+]([O-])c1ccccc1/C=C/C=C1c2ccccc2-c2ccccc21 , the logged TGI turned out to be > 100 µM

So for O=C(/C=C/C12c3ccccc3C(c3ccccc31)C1C(=O)NC(=O)C12)c1ccco1 (stereo unspecified) , the logged TGI turned out to be 11.9 µM

So for CC(=O)/C(=C/N1C(=O)CC(=O)NC1=S)C(=O)Nc1ccccc1C , the logged TGI turned out to be > 100 µM

***
So for COc1ccc2cc(CNCCCN3CCN(CCCNCc4ccc5cc(OC)ccc5c4)CC3)ccc2c1 , the logged TGI turned out to be 2.88 µM

All figures here come from PubChem BioAssay (NCI).
